# MEASUREMENT NOTES: Phase I study plasma pharmacokinetics
# Type: in vivo, human
# TEST SETTINGS: human, plasma, oral, 600 mg/day, Multiple administrations Day 22; 600 mg/day BID; n=6; median; read-out: Tmax
METRIC NAME: Tmax (h)
Numbers only; they are read as h.

Request: So what's the measured Tmax for this one? Cc1ccc2c(Nc3cccc(Cl)c3F)nccc2c1NC(=O)c1csc2c(N)ncnc12 [Belvarafenib]
Result: 3.4

###

# MEASUREMENT NOTES: Phase I study plasma pharmacokinetics
# Assay type: in vivo, human
# TEST SETTINGS: human, plasma, po, 100 mg/day QD, Day 1 first dose; 100 mg/day QD; n=3; median; read-out: Tmax
METRIC NAME: Tmax (h)
Entry rule: numbers only, all in h.

Request: Quick one: Tmax for `Cc1ccc2c(Nc3cccc(Cl)c3F)nccc2c1NC(=O)c1csc2c(N)ncnc12` ?
Result: 3
